Reference source for all entries: ChEMBL document CHEMBL1135258

# target or system: Thioesterase GrsT homolog tycF (Brevibacillus brevis) (UniProt O30412)
# Sequence (O30412 as listed by the source): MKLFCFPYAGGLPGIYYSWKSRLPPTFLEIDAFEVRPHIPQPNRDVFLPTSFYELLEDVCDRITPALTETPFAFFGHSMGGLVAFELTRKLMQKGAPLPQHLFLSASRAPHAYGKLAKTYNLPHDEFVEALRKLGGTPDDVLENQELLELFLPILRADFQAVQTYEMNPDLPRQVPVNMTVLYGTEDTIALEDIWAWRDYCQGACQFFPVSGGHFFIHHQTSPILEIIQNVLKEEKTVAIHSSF
# test method notes: Apparent kinetic constant (Kcat) for tyrocidine thioesterase amplified from Bacillus brevis (ATCC8185)
recorded endpoint: k cat (s⁻¹)
Record the value in s⁻¹, omitting the unit from your answer.

smiles_repr=CC(=O)NCCSC(=O)[C@H](CC(C)C)NC(=O)[C@H](CCCN)NC(=O)[C@@H](NC(=O)[C@H](Cc1ccc(O)cc1)NC(=O)[C@H](CCC(N)=O)NC(=O)[C@H](CC(N)=O)NC(=O)[C@H](CC(=O)O)NC(=O)[C@H](Cc1ccccc1)NC(=O)[C@@H]1CCCN1C(=O)[C@H](N)Cc1ccccc1)C(C)C value_measured=0.233
smiles_repr=CC(=O)NCCSC(=O)[C@H](CC(C)C)NC(=O)[C@H](CCCN)NC(=O)[C@@H](NC(=O)[C@H](Cc1ccc(O)cc1)NC(=O)[C@H](CCC(N)=O)NC(=O)[C@H](CC(N)=O)NC(=O)[C@@H]1CCCN1C(=O)[C@H](Cc1ccccc1)NC(=O)[C@@H]1CCCN1C(=O)[C@H](N)Cc1ccccc1)C(C)C value_measured=0.25

The record that follows has no k cat shown yet.
Give its k cat value. Item: "CC(=O)NCCSC(=O)[C@H](CC(C)C)NC(=O)[C@H](CCCN)NC(=O)[C@@H](NC(=O)[C@H](Cc1ccc(O)cc1)NC(=O)[C@H](CC(N)=O)NC(=O)[C@H](CC(N)=O)NC(=O)[C@@H](Cc1ccccc1)NC(=O)[C@H](Cc1ccccc1)NC(=O)[C@@H]1CCCN1C(=O)[C@H](N)Cc1ccccc1)C(C)C"
1.33
